- System: Mycolicibacterium smegmatis MC2 155
- Assay Notes: Inhibition of multidrug resistance efflux pump in Mycobacterium smegmatis MC2 155 ATCC 700084 assessed as reduction in EtBr MIC at 62.5 mg/L by MTT assay relative to control
Each entry below carries its reported fold change (FC).
Lab note: record just the number, no unit beside it.

>>> reported("COc1ccc(/C=C2\\COc3c(ccc(O)c3OC)C2=O)cc1 [E-8-METHOXYBONDUCELLIN]")
2
>>> reported("COc1ccc(/C=C2\\COc3cc(O)ccc3C2=O)cc1 [BONDUCELLIN]")
8
>>> reported("COc1ccc(/C=C2\\COc3c(ccc(O)c3O)C2=O)cc1 [INTRICATINOL]")
2
>>> reported("C=CCOc1cccc(/C=C2\\COc3cc(O)ccc3C2=O)c1")
4

Reported fold change (FC), compound O=C1/C(=C/c2ccccc2Br)COc2cc(O)ccc21 : ____
2

Repeat with O=C1/C(=C/c2ccccc2F)COc2cc(O)ccc21
4

Next compound up: O=C1/C(=C/c2ccccc2Cl)COc2cc(O)ccc21
2

Now give it for O=C1/C(=C/c2ccc(O)cc2)COc2cc(O)ccc21 too.
8

Same for O=C1/C(=C/c2ccccc2)COc2cc(O)ccc21
4

Do the same for COc1ccc(/C=C2\COc3cc(O)cc(O)c3C2=O)cc1 please
2

---

- Tested on: Mycolicibacterium smegmatis MC2 155
- Assay Notes: Inhibition of multidrug resistance efflux pump in Mycobacterium smegmatis MC2 155 ATCC 700084 assessed as reduction in EtBr MIC at 125 mg/L by MTT assay relative to control
Measured Quantity: fold change (FC)
Form field (numeric): enter value without unit.

Some compounds with recorded fold change (FC):
>>> reported("O=C1/C(=C/c2ccc(O)cc2)COc2cc(O)ccc21")
16
>>> reported("O=C1/C(=C/c2cccc(Br)c2)COc2cc(O)ccc21")
2
>>> reported("C=CCOc1cccc(/C=C2\\COc3cc(O)ccc3C2=O)c1")
8

What does the record list as fold change (FC) for C=CCOc1ccc(/C=C2\COc3cc(O)ccc3C2=O)cc1 ?
2

Also COc1cccc(/C=C2\COc3cc(O)ccc3C2=O)c1 , if possible.
2

---

Listed here are compounds together with their documented fold change (FC).
- System: Mycolicibacterium smegmatis MC2 155
- Assay Notes: Inhibition of multidrug resistance efflux pump in Mycobacterium smegmatis MC2 155 ATCC 700084 assessed as reduction in EtBr MIC at 125 mg/L by MTT assay relative to control
API doc: respond with a numeric literal and nothing else, no unit.

So what's the measured fold change (FC) for this one? O=C1/C(=C/c2ccc(Cl)cc2)COc2cc(O)ccc21
4

Quick one: O=C1/C(=C/c2cccc(F)c2)COc2cc(O)ccc21
4

Entry O=C1/C(=C/c2ccc(F)cc2)COc2cc(O)ccc21 please
4

---

- System: Mycolicibacterium smegmatis MC2 155
- Assay Notes: Inhibition of multidrug resistance efflux pump in Mycobacterium smegmatis MC2 155 ATCC 700084 assessed as reduction in EtBr MIC at 125 mg/L by MTT assay relative to control
# fold change (FC) per record follows
// return a plain number; no unit text

For orientation, consider the following solved cases.
>>> reported("O=C1/C(=C/c2ccccc2)COc2cc(O)ccc21")
8
>>> reported("O=C1/C(=C/c2ccc(C(F)(F)F)cc2)COc2cc(O)ccc21")
4
>>> reported("COc1ccccc1/C=C1\\COc2cc(O)ccc2C1=O")
4
>>> reported("O=C1/C(=C/c2ccc(Br)cc2)COc2cc(O)ccc21")
2
>>> reported("O=C1/C(=C/c2cccc(O)c2)COc2cc(O)ccc21")
4

// query fold change (FC) value for entry O=C1/C(=C/c2cccc(Cl)c2)COc2cc(O)ccc21
2

Try C=CCOc1ccccc1/C=C1\COc2cc(O)ccc2C1=O next.
2
